# tested.system: T1, Dimeric monkey CD48-mFc (monkey)
# T1 construct: Soluble monkey CD48 with a C-terminal Fc fusion [mFc]; the whole entry is the construct
# T1 chain: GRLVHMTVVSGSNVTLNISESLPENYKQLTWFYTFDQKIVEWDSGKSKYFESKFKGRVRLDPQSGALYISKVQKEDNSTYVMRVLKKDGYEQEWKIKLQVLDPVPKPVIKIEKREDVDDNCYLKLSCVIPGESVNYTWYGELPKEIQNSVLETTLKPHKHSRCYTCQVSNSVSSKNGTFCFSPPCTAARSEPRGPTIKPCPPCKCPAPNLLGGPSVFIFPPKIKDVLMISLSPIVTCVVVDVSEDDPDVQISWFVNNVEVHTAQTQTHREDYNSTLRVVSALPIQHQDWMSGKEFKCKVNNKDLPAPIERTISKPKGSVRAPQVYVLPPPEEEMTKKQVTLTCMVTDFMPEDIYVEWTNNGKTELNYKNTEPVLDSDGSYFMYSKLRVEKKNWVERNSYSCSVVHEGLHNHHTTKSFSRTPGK
# method: SPR (Biacore), antibody captured by anti-Fc, CD48 in solution, 37 C
measure: koff (s⁻¹)
Kindly provide the numeric value in s⁻¹ only, without the unit symbol.

Return koff (reported value) for this binder: H4H1779P (antibody, human IgG4, V domains shown, Human IgG4 Fc (H4H)) VH: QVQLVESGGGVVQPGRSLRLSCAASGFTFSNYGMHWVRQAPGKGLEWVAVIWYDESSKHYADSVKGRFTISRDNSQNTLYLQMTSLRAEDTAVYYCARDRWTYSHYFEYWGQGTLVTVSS VL: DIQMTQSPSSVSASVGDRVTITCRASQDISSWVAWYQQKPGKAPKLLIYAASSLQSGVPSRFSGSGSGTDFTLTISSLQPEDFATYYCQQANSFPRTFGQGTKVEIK
5.98e-05

Read off the recorded koff for H4H1772P (antibody, human IgG4, V domains shown, Human IgG4 Fc (H4H)) VH: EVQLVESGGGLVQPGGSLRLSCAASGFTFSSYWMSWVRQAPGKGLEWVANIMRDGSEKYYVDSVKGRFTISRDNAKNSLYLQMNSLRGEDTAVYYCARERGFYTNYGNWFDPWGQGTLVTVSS VL: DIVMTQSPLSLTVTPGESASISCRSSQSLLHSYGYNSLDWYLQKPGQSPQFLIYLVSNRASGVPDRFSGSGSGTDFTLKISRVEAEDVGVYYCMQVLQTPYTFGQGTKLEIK
7.31e-05

Item H4H1707N (antibody, V domains shown, Human IgG4 Fc (H4H)) VH: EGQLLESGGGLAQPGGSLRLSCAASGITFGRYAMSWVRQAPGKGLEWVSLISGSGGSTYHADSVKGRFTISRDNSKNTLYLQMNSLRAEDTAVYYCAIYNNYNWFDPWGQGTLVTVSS VL: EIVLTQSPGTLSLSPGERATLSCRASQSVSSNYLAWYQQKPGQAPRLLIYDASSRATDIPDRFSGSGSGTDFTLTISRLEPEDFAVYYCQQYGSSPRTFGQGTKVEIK : provide koff
0.00524
